The measured values listed here are drawn from ChEMBL document CHEMBL6071142.

SUBJECT OF TEST: Protein deacetylase HDAC6 (Homo sapiens)
Sequence (Q9UBN7 whole entry): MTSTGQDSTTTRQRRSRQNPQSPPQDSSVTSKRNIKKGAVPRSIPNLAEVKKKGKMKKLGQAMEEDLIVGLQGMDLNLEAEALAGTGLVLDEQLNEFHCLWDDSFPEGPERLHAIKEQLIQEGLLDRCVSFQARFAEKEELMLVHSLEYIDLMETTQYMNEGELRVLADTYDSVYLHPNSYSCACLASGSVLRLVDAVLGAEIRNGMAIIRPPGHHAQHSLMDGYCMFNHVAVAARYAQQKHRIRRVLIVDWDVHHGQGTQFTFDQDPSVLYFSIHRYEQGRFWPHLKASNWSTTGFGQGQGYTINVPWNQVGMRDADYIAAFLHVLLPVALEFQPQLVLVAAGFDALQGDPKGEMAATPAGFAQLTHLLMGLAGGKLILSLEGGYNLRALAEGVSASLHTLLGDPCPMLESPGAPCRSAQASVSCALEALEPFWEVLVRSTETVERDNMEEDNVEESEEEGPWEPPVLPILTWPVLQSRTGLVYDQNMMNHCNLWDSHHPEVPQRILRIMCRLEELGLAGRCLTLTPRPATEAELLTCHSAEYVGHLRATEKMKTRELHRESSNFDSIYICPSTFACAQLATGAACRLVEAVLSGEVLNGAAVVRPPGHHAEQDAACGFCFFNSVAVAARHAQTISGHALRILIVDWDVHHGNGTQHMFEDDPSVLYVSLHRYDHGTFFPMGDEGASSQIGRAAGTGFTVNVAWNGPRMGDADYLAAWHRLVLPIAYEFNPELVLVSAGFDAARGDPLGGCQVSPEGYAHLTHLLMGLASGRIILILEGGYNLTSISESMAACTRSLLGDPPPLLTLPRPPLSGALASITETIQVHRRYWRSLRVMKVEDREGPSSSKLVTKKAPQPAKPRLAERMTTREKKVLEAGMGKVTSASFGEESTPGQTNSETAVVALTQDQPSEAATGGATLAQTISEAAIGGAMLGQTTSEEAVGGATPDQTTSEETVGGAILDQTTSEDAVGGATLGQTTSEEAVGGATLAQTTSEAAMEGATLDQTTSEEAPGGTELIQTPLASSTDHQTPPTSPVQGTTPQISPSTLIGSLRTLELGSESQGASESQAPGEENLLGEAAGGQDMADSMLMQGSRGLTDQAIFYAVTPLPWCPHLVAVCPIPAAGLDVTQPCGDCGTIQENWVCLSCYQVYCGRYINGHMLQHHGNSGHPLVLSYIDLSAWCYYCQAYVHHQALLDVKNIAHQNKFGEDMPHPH
PROCEDURE SUMMARY: Inhibition of recombinant human HDAC6 using Boc-Lys (acetyl)-AMC as substrate preincubated with compound for 1 hr followed by substrate addition and measured after 30 mins by microplate reader assay
pIC50: −log10 of the molar value.
VALUE TYPE: pIC50

C=C1C(=O)O[C@@H]2C[C@@]3(C)CC[C@@H](OC(=O)[C@H](C)NC(=O)c4ccc(C(=O)NO)cc4)C(=C)[C@@H]3C[C@H]12    6.57
C=C1C(=O)O[C@@H]2C[C@@]3(C)CC[C@@H](OC(=O)[C@@H](CC(C)C)NC(=O)c4ccc(C(=O)Nc5ccccc5N)cc4)C(=C)[C@@H]3C[C@H]12    < 6.00

Next up:
Request: Output measured pIC50 for this item: C=C1C(=O)O[C@@H]2C[C@@]3(C)CC[C@@H](OC(=O)[C@H](NC(=O)c4ccc(C(=O)Nc5ccccc5N)cc4)C(C)C)C(=C)[C@@H]3C[C@H]12
Result: < 6.00
